assay-overview: self-splicing fitness, log relative to wild type (ln ratio); higher = more splicing; Tetrahymena group I intron in knt gene, E. coli kanamycin selection, DiMSum; sequences stand for … in CUCUCU…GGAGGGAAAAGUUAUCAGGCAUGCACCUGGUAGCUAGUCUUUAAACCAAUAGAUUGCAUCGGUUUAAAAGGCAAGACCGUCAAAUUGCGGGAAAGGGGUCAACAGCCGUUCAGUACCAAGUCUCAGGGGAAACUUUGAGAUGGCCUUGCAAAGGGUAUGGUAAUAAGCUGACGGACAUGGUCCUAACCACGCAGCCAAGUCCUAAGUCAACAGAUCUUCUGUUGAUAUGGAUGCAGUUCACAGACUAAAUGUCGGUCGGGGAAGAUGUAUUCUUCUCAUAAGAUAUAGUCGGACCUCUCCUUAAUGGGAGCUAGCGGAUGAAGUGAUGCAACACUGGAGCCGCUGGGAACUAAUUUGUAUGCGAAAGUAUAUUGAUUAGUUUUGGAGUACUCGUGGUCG;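 further: selection with 25 µg/mL kanamycin versus none on LB agar overnight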
measurement-parameters: 37 °C
result-type: self-splicing fitness (ln)
A bare number is all that is needed in reply.

// known answers, use as guide
AGCUAGCAAUAUUACGCAUA    -1.22
UUUAAGCAAUAUUACGCUCG    0.0454
AUUGAGCAAUAUUACGAGUG    -2.76

The sequence GAGAAGCAAUAUUACGCGGA showed self-splicing fitness (ln) equal to -1.39

The sequence GAGUAGCAAUAUUACGCAUC showed self-splicing fitness (ln) equal to -2.17

* * *

assay-overview: self-splicing fitness, log relative to wild type (ln ratio); higher = more splicing; Tetrahymena group I intron in knt gene, E. coli kanamycin selection, DiMSum; sequences stand for … in CUCUCU…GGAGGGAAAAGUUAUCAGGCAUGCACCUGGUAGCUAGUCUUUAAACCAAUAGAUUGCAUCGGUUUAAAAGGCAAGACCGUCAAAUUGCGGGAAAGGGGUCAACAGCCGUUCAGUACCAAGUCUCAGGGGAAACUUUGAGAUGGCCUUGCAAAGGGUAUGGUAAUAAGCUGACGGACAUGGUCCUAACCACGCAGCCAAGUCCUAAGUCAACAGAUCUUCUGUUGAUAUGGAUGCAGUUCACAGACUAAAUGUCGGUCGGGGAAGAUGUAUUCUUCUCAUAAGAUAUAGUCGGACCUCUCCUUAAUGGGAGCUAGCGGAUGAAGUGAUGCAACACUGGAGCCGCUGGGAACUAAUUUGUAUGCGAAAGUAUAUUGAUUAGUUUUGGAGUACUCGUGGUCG
measurement-parameters: 37 °C
result-type: self-splicing fitness (ln)
A bare number is all that is needed in reply.

// known answers, use as guide
UUUUAGCAAUAUUACGCCUG    0.333
CGAGAGCAAUAUUACGGAAU    -3.23
ACUGAGCAAUAUUACGUAGC    -1.66
AUUUAGCAAUAUUACGAGAU    -1.41
AGAUAGCAAUAUUACGACUC    -0.0202
GGAAAGCAAUAUUACGUAGC    -2.34

The sequence CCUGAGCAAUAUUACGGGGU showed self-splicing fitness (ln) equal to -3.06

The sequence ACUGAGCAAUAUUACGCGGA showed self-splicing fitness (ln) equal to -1.74

The sequence AGUGAGCAAUAUUACGGUUA showed self-splicing fitness (ln) equal to -2.48

The sequence GAUGAGCAAUAUUACGUCCC showed self-splicing fitness (ln) equal to -1.04
